System: VDR homodimer (NR concentration 270 nM)
Experiment: PBM binding z-score (relative to random genomic background probes); higher = stronger binding; sequences stand for … in GC…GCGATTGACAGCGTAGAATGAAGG
Quick list: PBM binding z-score per entry.

| Entry sequence | Target desc | PBM binding z-score |
| --- | --- | --- |
| AGACAAAGTTCAGGACGAGGTAACGTAAAGCACG | VDR homodimer (NR concentration 270 nM) | 2.08 |
| CCTAGTTGGTCAAGGTAACACACGCTATAGGTAC | VDR homodimer (NR concentration 270 nM) | 0.864 |
| CCAACTAGGTCATTGACAGGACAGTGAATAGTAA | VDR homodimer (NR concentration 270 nM) | 1.64 |
| CGAACAAGGTCAAAGGACAGTGAAAGGCGACGTA | VDR homodimer (NR concentration 270 nM) | 2.26 |
| CGAACTAGGTCACCAGGTCAGTGAAGAGGTTGGA | VDR homodimer (NR concentration 270 nM) | 1.52 |
| CCGAGTACGTTACGAGGGGGCATTCAGTGCGAAT | VDR homodimer (NR concentration 270 nM) | 4.78 |
| AGTCAAAGTTCAGGACGAGATAACGTAAAGCACG | VDR homodimer (NR concentration 270 nM) | 1.95 |
| ATCGAAAGGTCGTGACGTGAGTATACAGAAAGGC | VDR homodimer (NR concentration 270 nM) | 0.662 |
| CAAACTAGGTCAAAGGTCAAAATCGAGCCAACCA | VDR homodimer (NR concentration 270 nM) | 2.94 |
| ACTTACGGGTCAACGACGTTATAGCACGCGTATA | VDR homodimer (NR concentration 270 nM) | 0.841 |
| ACTAGTTGGTCAGCTGAGGTCACACACAATTCGG | VDR homodimer (NR concentration 270 nM) | 3.54 |
| ACTAGTTGCTCAGCTGAGGTCACACACAATTCGG | VDR homodimer (NR concentration 270 nM) | 3.14 |
| ATCCAAAGGTCGAGGTGAGTATAGAGAAAGGGAA | VDR homodimer (NR concentration 270 nM) | 1.09 |
| AACGAAAGGTCGACGAGGTGAGTATACACCGTTT | VDR homodimer (NR concentration 270 nM) | 0.772 |
| CAAACTAGGTCAAAGGTCAAAGACGAGCCAACCA | VDR homodimer (NR concentration 270 nM) | 3.33 |
| CGTCCAAGGTCAATGCTAGGCCAGTGAAAGCATT | VDR homodimer (NR concentration 270 nM) | 2.49 |
| TCGAGTAGGTTACCGGGGCATTCAGGGATGAAGA | VDR homodimer (NR concentration 270 nM) | -0.232 |
| ATATGTAGGTTCCATCCGGGTCATTCAGGCTATG | VDR homodimer (NR concentration 270 nM) | 2.91 |
| CGAACTTGGTCAAAGGACAGTGAAAGGCGACGTA | VDR homodimer (NR concentration 270 nM) | -0.0452 |
| CCGACTGGGTCAAAGGTTACCATACTCAGTACGA | VDR homodimer (NR concentration 270 nM) | 0.82 |
| CCGAGTAGGTTACGAGGGGGCATTCCGTGCGAAT | VDR homodimer (NR concentration 270 nM) | 2.75 |

====

System: THRa homodimer (NR concentration 90 nM)
Experiment: PBM binding z-score (relative to random genomic background probes); higher = stronger binding; sequences stand for … in GC…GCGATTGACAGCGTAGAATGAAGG
Please note: 1 (yes) applies when PBM binding z-score is 2 or greater, and 0 (no) applies otherwise.

| Entry sequence | Classification |
| --- | --- |
| CCGAGTAGGATACGAGGGGGCATTCAGTGCGAAT | 0 (no) |
| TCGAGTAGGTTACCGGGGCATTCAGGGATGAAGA | 0 (no) |
| TCTCGGAGGACACGAAAGGTCAGTGCTCGACATC | 0 (no) |
| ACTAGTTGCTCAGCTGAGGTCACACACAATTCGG | 1 (yes) |

====

The reader will find reported PBM binding z-score values listed item by item below.
System: PPARg DBDmut:RXRa IVT, anti-PPARg (DBD mutation: PPARg1 K132A/R137A, NR concentration 270 nM, RXRa partner concentration 90 nM)
Assay: PBM binding z-score (relative to random genomic background probes); higher = stronger binding; sequences stand for … in GC…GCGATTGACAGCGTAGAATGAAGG
Quantity measured: PBM binding z-score

| Entry sequence | Val |
| --- | --- |
| AGTCATAGTTCACTAGGTAACGTAAGATTCAGCT | 1.06 |
| CCTACTGGGCCGAGGTCATTGATCAGTCAAAGCA | -0.758 |
| GATACGGGGTCAGCTAGAGGCCAGAGTATGGAAA | 1.44 |
| TAGCCTAGGTCATGCGGGCCAGCATAGTGTCGGC | 0.0937 |
| CGTCCAAGGTAAGAGAGGTCAGTGAATGCCGAGT | -1.12 |

====

Test system: RARb:RXRa (NR concentration 270 nM, RXRa partner concentration 90 nM)
Assay: PBM binding z-score (relative to random genomic background probes); higher = stronger binding; sequences stand for … in GC…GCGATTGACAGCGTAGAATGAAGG

| Entry sequence | PBM binding z-score |
| --- | --- |
| ATCGAAAGGTCGTGAGGTGAGTACACAGAAAGGC | 3.91 |
| GATTACGGGTCAAAGGTTATAGCATGAATAGAAT | 4.69 |
| CTCGAAAGGTCGTGCTCAGGTGAGTATGCCAAAC | 3.83 |
| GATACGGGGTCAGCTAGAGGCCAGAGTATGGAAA | 5.15 |

====

Test system: PPARg:RXRa 270nM:90nM, anti-RXR (NR concentration 270 nM, RXRa partner concentration 90 nM)
Test: PBM binding z-score (relative to random genomic background probes); higher = stronger binding; sequences stand for … in GC…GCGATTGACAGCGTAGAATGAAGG
Overview of recorded PBM binding z-score for various sequences
Quantity measured: PBM binding z-score

| Entry sequence | Val |
| --- | --- |
| CGTCTAAGGTCAAAGGTCAGTGAAGAGATGACGG | 8.6 |
| CCGAGTAGGTTACGAGGGGGCCTTCAGTGCGAAT | 2.53 |
| ATATGCAGGTTAGGGTCATTCAGAAAGTAGGGAA | 4.1 |
| ATATGAAGGTTAGGGTCATTCAGAAAGTAGGGAA | 4.02 |
| CGTCCAAGGTCAGAGAGGTCAGTGACTGCCGAGT | 4.2 |
| CCGAGTAGGTTACGAGGGGGCATTCACTGCGAAT | 3.18 |
| CTATGTAGGCTAAGGGGGTCATTCAGTTTGAAAG | 6.41 |
| ATCTCTAGGTAAATGTTCAGTGAATCCCGAGGAT | 1.01 |
| ATATGTAGGTTAGGATCATTCAGAAAGTAGGGAA | 3.07 |
| TAGCCTAGGTCATGGGCCAGTTTACCACGCGAAC | 3.88 |
| CTATGTAGGTTAAGGGGGTAATTCAGTTTGAAAG | 6.9 |
| GATACAGGGTCAGCTAGAGGGCAGAGTATGGAAA | 3.6 |
| GCTAGTAGGTCAGTAAAAGGTCACACACCGGTCG | 6.72 |
| CCGAGTAGGTTACAAGGGGGCATTCAGTGCGAAT | 3.68 |
| CGTCCGAGGTCAATGCTAGGTCAGTGAAAGCATT | 5.35 |
| AGAATGAGGTTACCAGAGATCAGGGAAACGCTTG | 2.74 |
| CCGAGTAGTTTACGAGGGGGCATTCAGTGCGAAT | 1.08 |
| CGAACTAGTTCACCAGGACAGTGAAGAGGTTGGA | 0.354 |
| CCTACTGGGCCAAAGGTCATAGATTCCAATGCTC | 10.5 |

====

Tested on: RARg homodimer (NR concentration 270 nM)
Test: PBM binding z-score (relative to random genomic background probes); higher = stronger binding; sequences stand for … in GC…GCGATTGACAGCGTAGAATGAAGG
Tag: label 1 if measured PBM binding z-score is not below 4, label 0 if it is.

| Entry sequence | Target desc | Classification |
| --- | --- | --- |
| TCGAGTAGGTTACGGGGCCATTCAGGGATGAAGA | RARg homodimer (NR concentration 270 nM) | label 0 |
| ATCGAAAGGTCGAGTTGAGTATAGAGAAAGGGAA | RARg homodimer (NR concentration 270 nM) | label 1 |
| CCTACTGGGCCATTAAGAGGTCATTGATCATATG | RARg homodimer (NR concentration 270 nM) | label 0 |
| CAGAGTAGGTTACGAGGGGGCATTCAGTGCGAAT | RARg homodimer (NR concentration 270 nM) | label 0 |
| CGTCAAAGTTCACCTAAGGTAACGTAAAGCACGC | RARg homodimer (NR concentration 270 nM) | label 1 |
| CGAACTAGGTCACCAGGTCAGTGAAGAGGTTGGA | RARg homodimer (NR concentration 270 nM) | label 1 |
| CGAACTAGGTCACCAGGACAGTGACGAGGTTGGA | RARg homodimer (NR concentration 270 nM) | label 1 |
| CCGAGTAGGTTACGAGGGGGCATTCTGTGCGAAT | RARg homodimer (NR concentration 270 nM) | label 0 |
| ATATGTAGGTTACATCGGGGTCATTCAGGCTATG | RARg homodimer (NR concentration 270 nM) | label 0 |
| CCTTACGGGTCACTCAAGGTTATAGCATCGGAGT | RARg homodimer (NR concentration 270 nM) | label 1 |
| CCTAGTTGGTCAGGAGGCCACACACCGGATATGA | RARg homodimer (NR concentration 270 nM) | label 0 |
| CACACTAGGTCAAGAGGTCAAAGTCCGCTTCCCG | RARg homodimer (NR concentration 270 nM) | label 1 |
| TTACCAAGGTCAGCTGAGGTCGTTGATCCAACTC | RARg homodimer (NR concentration 270 nM) | label 1 |
| CGTCCAAGGTCATAGGAGGTCACTGAAGACAGAT | RARg homodimer (NR concentration 270 nM) | label 1 |
| CCTTACGGGTCACGGTTATAGCACGGGTGGTACG | RARg homodimer (NR concentration 270 nM) | label 1 |
| CCTACTGTGCCATTCAGAGGTCATTGATCATATG | RARg homodimer (NR concentration 270 nM) | label 0 |
| TCGAGTAGGTTACGCGGGCATTCAGGGATGAAGA | RARg homodimer (NR concentration 270 nM) | label 0 |
| GACACAGGGTCAGCTAGAGGCCAGAGTATGGAAA | RARg homodimer (NR concentration 270 nM) | label 1 |
| TCGAGTAGTTTACGGGGGCATTCAGGGATGAAGA | RARg homodimer (NR concentration 270 nM) | label 0 |
| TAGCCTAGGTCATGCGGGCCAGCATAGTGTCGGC | RARg homodimer (NR concentration 270 nM) | label 1 |
| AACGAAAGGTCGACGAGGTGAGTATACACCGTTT | RARg homodimer (NR concentration 270 nM) | label 0 |
| CGAACTATGTCAAAGGACAGTGAAAGGCGACGTA | RARg homodimer (NR concentration 270 nM) | label 0 |
| CGAACTGGGTCAAAGGACAGTGAAAGGCGACGTA | RARg homodimer (NR concentration 270 nM) | label 0 |
| GATAAAGGGTCAGCTAGAGGCCAGAGTATGGAAA | RARg homodimer (NR concentration 270 nM) | label 1 |
| CTATGTAGGTTAAGGGGGTCACTCAGTTTGAAAG | RARg homodimer (NR concentration 270 nM) | label 0 |
| TATACAGGGTCAAAGGGCAGAGTACGAATGTCGA | RARg homodimer (NR concentration 270 nM) | label 1 |
| ACTCGGAGGACAGAGGTCAGAGCTACGCCAGTGA | RARg homodimer (NR concentration 270 nM) | label 1 |
| CTATGTAGGTTAAGGGGGACATTCAGTTTGAAAG | RARg homodimer (NR concentration 270 nM) | label 0 |
| ATATGTAGGTTAGGCTCATTCAGAAAGTAGGGAA | RARg homodimer (NR concentration 270 nM) | label 0 |
| CGAACTAGGTGATTGACAGGACAGTGAATAGTAA | RARg homodimer (NR concentration 270 nM) | label 0 |
| CATAGTTGGTCAAGGTCACACACGCTATAGGTAC | RARg homodimer (NR concentration 270 nM) | label 1 |
| CGAACTAGGTCACCAGGACAGTGCAGAGGTTGGA | RARg homodimer (NR concentration 270 nM) | label 1 |
| CAAACTAGGTCACAGAGGTCAACGTCCGTGCGTA | RARg homodimer (NR concentration 270 nM) | label 1 |
| AGAGTGAGGTTACCAAAGATCAGGGAAACGCTTG | RARg homodimer (NR concentration 270 nM) | label 0 |
| CCGAGTAGGTTACGAGGGGACATTCAGTGCGAAT | RARg homodimer (NR concentration 270 nM) | label 0 |
| CCGAGTAGGTTACGAGGGGGCAGTCAGTGCGAAT | RARg homodimer (NR concentration 270 nM) | label 0 |
| ACTAGCAGGCCAAGAGTCACTCAAGATTAGTCCG | RARg homodimer (NR concentration 270 nM) | label 0 |
| CGAATTAGGTCAAAGGACAGTGAAAGGCGACGTA | RARg homodimer (NR concentration 270 nM) | label 1 |
| CGAACTTGGTCACCAGGACAGTGAAGAGGTTGGA | RARg homodimer (NR concentration 270 nM) | label 0 |
| CCTCGGAGGACACCAGGAGGTCAGAGCTGCCAGA | RARg homodimer (NR concentration 270 nM) | label 0 |
| AAATGTAGGTTAGGGTCATTCAGAAAGTAGGGAA | RARg homodimer (NR concentration 270 nM) | label 0 |
